Hey, just so you know, these numbers are from patent US6495376B1.

target-system: Pin1 (Homo sapiens, UniProt Q13526)
Sequence (Q13526 whole entry): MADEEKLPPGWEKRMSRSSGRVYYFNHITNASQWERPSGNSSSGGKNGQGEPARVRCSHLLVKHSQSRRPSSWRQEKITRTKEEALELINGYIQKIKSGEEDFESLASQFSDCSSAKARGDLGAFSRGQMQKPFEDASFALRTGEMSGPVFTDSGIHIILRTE
experimental-protocol: ELISA peptide binding to Pin1
run-parameters: Pin1
Where no end group is shown, it is not given here.
Form field: Binding (OD@405 nm), tau peptides (one value per entry).
Please give the number followed by its unit.

seq-text: VRTPPKSPSSAKSR (also: phosphoserine, place not given here) [pS-235]
Binding (OD@405 nm), tau peptides: 0.11 OD@405 nm

seq-text: SRSRTPSLPTPPT (also: phosphoserine, place not given here) [pS-214]
Binding (OD@405 nm), tau peptides: 0.00 OD@405 nm

Now for a further sequence.
Ask: Write down Binding (OD@405 nm), tau peptides measured for item GYSSPGSPGTPGSR (also: phosphoserine, place not given here) [pS-202]
Reply: 0.08 OD@405 nm
